Biological target: Human DNA polymerase λ (Homo sapiens, UniProt Q9UGP5)
Sequence (Q9UGP5 1-575): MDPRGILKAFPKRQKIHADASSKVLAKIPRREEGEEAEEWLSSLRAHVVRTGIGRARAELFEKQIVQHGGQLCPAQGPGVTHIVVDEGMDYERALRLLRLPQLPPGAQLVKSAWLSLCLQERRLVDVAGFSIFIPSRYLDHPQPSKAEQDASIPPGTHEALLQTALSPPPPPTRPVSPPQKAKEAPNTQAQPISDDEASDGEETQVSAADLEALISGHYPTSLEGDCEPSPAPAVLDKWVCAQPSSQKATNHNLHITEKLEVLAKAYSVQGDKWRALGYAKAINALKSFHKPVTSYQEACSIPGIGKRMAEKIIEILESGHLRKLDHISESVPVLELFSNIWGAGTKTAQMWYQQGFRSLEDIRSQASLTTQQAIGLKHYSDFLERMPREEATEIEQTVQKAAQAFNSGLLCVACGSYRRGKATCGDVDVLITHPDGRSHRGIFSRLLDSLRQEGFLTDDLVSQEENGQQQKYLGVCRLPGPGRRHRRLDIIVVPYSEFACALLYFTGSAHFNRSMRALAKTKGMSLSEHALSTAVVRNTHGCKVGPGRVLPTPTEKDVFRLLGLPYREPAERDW

{"RECORD SMILES": "CC(C)=CCC/C(C)=C/CC1=C(C)C(=O)c2ccccc2C1=O", "TARGET ENTITY": "Human DNA polymerase λ (Homo sapiens, UniProt Q9UGP5)", "IC50": "24.6 µM"}

###

target: X-family pols (mammalian); assay: DNA polymerase activity assay, mammalian X-family pols; conditions: range over mammalian X-family pols β, λ, TdT; read-out: 50% inhibition of the X family of pols
pIC50: −log10 of the molar value.

{"RECORD SMILES": "CC(C)=CCC/C(C)=C/CC1=C(C)C(=O)c2ccccc2C1=O", "pIC50": "4.51 to 4.61"}

###

target: UniProt P06526
Sequence (P06526 whole entry): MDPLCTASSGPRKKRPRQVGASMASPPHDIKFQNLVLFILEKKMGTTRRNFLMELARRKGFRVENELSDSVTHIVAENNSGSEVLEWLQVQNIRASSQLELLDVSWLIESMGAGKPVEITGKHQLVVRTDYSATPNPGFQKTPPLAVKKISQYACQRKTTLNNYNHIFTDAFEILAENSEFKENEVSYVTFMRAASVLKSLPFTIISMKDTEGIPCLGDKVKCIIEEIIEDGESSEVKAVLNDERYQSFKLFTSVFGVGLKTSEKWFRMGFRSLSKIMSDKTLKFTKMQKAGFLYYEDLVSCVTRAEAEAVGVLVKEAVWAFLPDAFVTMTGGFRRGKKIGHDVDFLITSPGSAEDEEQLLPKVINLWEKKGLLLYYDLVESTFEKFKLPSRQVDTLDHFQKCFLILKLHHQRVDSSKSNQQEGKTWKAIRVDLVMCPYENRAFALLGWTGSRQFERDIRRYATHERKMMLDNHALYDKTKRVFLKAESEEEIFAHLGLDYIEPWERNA
QUANTITY: IC50 (µM)

{"RECORD SMILES": "CC(C)=CCC/C(C)=C/CC1=C(C)C(=O)c2ccccc2C1=O", "QUANTITY": "IC50", "UNIT OF MEASUREMENT": "µM", "REPORTED VALUE": 29.4}

###

target: Y-family pols (mammalian); test: DNA polymerase activity assay, mammalian Y-family pols; settings: range over mammalian Y-family pols η, ι, κ; read-out: 50% inhibition of the Y family of pols
pIC50: −log10 of the molar value.

{"COMPOUND": "CC(C)=CCC/C(C)=C/CC1=C(C)C(=O)c2ccccc2C1=O [MK-2]", "pIC50": "4.41 to 4.45"}

###

target: UniProt Z9UCE0HTX2
Sequence (Z9UCE0HTX2 1-856): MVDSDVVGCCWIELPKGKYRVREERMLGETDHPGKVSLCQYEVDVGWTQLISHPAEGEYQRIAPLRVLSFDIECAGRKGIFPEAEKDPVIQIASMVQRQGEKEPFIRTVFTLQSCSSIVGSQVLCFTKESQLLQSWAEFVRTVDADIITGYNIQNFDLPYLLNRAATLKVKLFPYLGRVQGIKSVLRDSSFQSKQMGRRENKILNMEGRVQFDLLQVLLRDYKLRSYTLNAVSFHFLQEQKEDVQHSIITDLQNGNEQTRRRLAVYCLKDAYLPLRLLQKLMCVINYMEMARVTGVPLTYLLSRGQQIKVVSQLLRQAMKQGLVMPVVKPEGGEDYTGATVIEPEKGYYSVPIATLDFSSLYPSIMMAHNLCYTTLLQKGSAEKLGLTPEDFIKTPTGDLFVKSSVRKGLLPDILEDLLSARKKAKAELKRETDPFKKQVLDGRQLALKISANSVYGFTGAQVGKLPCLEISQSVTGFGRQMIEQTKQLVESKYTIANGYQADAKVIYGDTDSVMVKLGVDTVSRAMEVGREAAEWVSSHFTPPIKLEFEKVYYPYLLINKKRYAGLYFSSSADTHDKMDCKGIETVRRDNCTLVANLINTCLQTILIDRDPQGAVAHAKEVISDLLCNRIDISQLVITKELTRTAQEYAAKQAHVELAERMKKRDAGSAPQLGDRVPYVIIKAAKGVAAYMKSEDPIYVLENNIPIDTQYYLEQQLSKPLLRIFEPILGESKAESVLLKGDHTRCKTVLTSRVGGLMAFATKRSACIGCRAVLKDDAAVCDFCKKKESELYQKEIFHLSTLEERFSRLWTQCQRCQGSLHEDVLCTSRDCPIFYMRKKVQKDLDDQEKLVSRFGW
QUANTITY: IC50 (µM)

{"COMPOUND": "CC(C)=CCC/C(C)=C/CC1=C(C)C(=O)c2ccccc2C1=O [MK-2]", "TARGET ENTITY": "UniProt Z9UCE0HTX2", "REPORTED VALUE": 32.5}

###

target: T4 polynucleotide kinase (Enterobacteria phage T4)
Sequence (P06855 whole entry): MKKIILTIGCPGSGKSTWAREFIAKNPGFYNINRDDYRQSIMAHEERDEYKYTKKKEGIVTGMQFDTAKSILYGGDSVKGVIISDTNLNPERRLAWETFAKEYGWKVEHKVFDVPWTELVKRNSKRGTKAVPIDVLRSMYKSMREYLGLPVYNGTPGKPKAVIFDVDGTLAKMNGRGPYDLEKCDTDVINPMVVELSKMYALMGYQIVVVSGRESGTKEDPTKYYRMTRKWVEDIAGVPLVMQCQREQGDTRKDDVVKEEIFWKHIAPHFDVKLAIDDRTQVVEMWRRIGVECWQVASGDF

{"RECORD SMILES": "CC(C)=CCC/C(C)=C/CC1=C(C)C(=O)c2ccccc2C1=O", "IC50": "> 200 µM"}

###

Biological target: Fruit fly DNA polymerase δ (Drosophila melanogaster, UniProt P54358)
Sequence (P54358 1-1092): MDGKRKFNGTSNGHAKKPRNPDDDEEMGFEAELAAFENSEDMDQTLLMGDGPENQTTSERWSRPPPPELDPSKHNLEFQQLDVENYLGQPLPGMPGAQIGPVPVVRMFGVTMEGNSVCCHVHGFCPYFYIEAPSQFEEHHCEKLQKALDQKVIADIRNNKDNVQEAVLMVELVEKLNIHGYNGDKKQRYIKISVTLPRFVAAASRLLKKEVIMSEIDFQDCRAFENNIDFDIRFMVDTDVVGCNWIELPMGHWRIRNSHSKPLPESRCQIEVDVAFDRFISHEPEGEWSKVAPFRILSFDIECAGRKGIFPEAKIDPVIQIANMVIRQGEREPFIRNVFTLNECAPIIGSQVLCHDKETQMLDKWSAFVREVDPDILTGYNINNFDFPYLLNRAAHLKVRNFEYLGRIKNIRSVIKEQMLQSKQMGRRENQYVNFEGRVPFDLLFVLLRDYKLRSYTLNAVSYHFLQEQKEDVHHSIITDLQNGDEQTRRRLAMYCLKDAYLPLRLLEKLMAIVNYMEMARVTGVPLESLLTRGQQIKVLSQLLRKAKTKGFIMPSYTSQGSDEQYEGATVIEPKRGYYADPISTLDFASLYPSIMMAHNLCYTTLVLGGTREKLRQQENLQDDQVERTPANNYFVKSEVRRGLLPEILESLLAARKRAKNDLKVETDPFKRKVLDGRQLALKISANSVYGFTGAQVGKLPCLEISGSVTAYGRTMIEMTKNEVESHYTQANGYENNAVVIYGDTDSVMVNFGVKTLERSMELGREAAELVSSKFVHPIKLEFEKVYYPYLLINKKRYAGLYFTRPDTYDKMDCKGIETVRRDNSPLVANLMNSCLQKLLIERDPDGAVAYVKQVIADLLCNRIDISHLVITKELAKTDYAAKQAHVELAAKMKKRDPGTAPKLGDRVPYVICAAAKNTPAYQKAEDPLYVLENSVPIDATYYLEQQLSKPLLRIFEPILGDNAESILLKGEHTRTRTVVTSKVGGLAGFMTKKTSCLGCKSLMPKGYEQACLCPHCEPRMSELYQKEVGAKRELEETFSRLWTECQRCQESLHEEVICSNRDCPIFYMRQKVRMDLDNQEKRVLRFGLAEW
pIC50: −log10 of the molar value.
QUANTITY: pIC50

{"MOLECULE": "CC(C)=CCC/C(C)=C/CC1=C(C)C(=O)c2ccccc2C1=O [MK-2]", "REPORTED VALUE": 4.43}
